Source of measurements: patent US12077503B2

The entries below are paired with their reported pest or weed control at 125 g/ha.
Test system: Galium (catchweed bedstraw, Galium aparine)
assay_protocol: Test A postemergence
Format: in vivo
details: Galium, post-emergence, 240 h, 125 g ai/ha, postemergence; visual injury on 0 to 100 scale (0 no effect, 100 complete control), approx. 10 d; read-out: Galium plant response rating
Description: […]
Give me the value, and tack the unit on after it.

Qu. Need pest or weed control at 125 g/ha of COc1cccc([C@H]2CN(C)C(=O)[C@@H]2C(=O)Nc2cccc(F)c2F)c1F , thanks.
Ans. 0%

Qu. And what about the compound CN1CC(c2cccc(C(F)(F)F)c2)C(C(=O)Nc2ccccc2CO)C1=O (centres unmarked) ?
Ans. 0%

Qu. And what about the compound CN1C[C@H](c2csc3c2CCC3)[C@@H](C(=O)Nc2ccc(F)c(F)c2F)C1=O ?
Ans. 20%

Qu. And what about the compound CN1C[C@H](c2csc3c2CCOC3)[C@@H](C(=O)Nc2ccccc2S(C)(=O)=O)C1=O ?
Ans. 0%

Qu. And what about the compound Cc1cc([C@H]2CNC(=O)[C@@H]2C(=O)Nc2ccccc2Cl)ccc1C(F)(F)F ?
Ans. 40%

###

The entries below are paired with their reported Plant response rating, Ryegrass, Italian.
System: ryegrass, Italian (Italian ryegrass, Lolium multiflorum)
assay_protocol: Test A preemergence
Assay type: in vivo
details: 125 g ai/ha, Preemergence; visual injury after approximately 10 d; 0 to 100 scale where 0 is no effect and 100 is complete control

Qu. Need Plant response rating, Ryegrass, Italian of CN1CC(c2cccc(OC(F)F)c2)C(C)(C(=O)Nc2cccc(F)c2F)C1=O (centres unmarked) [Compound 619] , thanks.
Ans. 0

Qu. And what about the compound O=C1NCC(c2c(F)cccc2F)C1C(=O)Nc1ccccc1F (racemic) [Compound 515] ?
Ans. 0

Qu. And what about the compound O=C1NCC(c2ccnc(C(F)(F)F)c2)C1C(=O)Nc1ccccc1F (racemic) [Compound 513] ?
Ans. 20

Qu. And what about the compound O=C1NCC(c2cccc(C(F)(F)F)c2F)C1C(=O)Nc1cccc(F)c1F (centres unmarked) [Compound 591] ?
Ans. 20

Qu. And what about the compound O=C(Nc1cccc(F)c1F)C1C(=O)N(C2C=CCCC2)CC1c1cccc(C(F)(F)F)c1 (centres unmarked) [Compound 525] ?
Ans. 0

Qu. And what about the compound CN1CC(c2cccc(OC(F)F)c2)C(C(=O)Nc2ccccc2S(C)(=O)=O)C1=O (centres unmarked) [Compound 523] ?
Ans. 40

Qu. And what about the compound O=C1NCC(c2cccc(C(F)(F)F)c2F)C1C(=O)Nc1ccc(F)cc1F (centres unmarked) [Compound 592] ?
Ans. 0

Qu. And what about the compound Cc1ccc(C2CN(C)C(=O)C2C(=O)Nc2ccc(F)cc2F)cc1 (centres unmarked) [Compound 664] ?
Ans. 20

###

System: barnyardgrass (Echinochloa crus-galli)
assay_protocol: Test G Pre-Emergence Protocol
Format: in vivo
details: Echinochloa crus-galli, pre-emergence, 312 h, 250 g ai/ha, evaluated after 13 days, read-out: Barnyardgrass damage rating (100=total damage to plant; 0=no damage to plant)
The entries below are paired with their reported pest or weed control at 250 g/ha.
Number only, in %; omit the unit.

Qu. Need pest or weed control at 250 g/ha of CN1C[C@@H](c2cnc(Cl)c(F)c2)[C@H](C(=O)Nc2cccc(F)c2F)C1=O (racemic) [Compound 1486] , thanks.
Ans. 90

Qu. And what about the molecule CN1C[C@H](c2ccc(C(F)(F)F)cc2)[C@@H](C(=O)Nc2cnccc2S(C)(=O)=O)C1=O (racemic) [Compound 1746] ?
Ans. 50

Qu. And what about the molecule Cc1ccc(C2CN(C)C(=O)C2C(=O)Nc2cccc(F)c2F)cc1[N+](=O)[O-] (stereo not shown) [Compound 1722] ?
Ans. 80

Qu. And what about the molecule CN1CC(c2ccc(C(F)(F)F)c(C(F)(F)F)c2)C(C(=O)Nc2cccc(F)c2F)C1=O (stereo not shown) [Compound 1714] ?
Ans. 80

Qu. And what about the molecule CN1C[C@H](c2ccc(C(F)(F)F)c(C(F)(F)F)c2)[C@@H](C(=O)Nc2ccccc2S(C)(=O)=O)C1=O (racemic) [Compound 1799] ?
Ans. 70

Further cases:
Qu. Need pest or weed control at 250 g/ha of Cc1ccc(NC(=O)[C@H]2C(=O)N(C)C[C@@H]2c2ccc(C(F)(F)F)cc2)c(C)c1C (racemic) [Compound 1448] , thanks.
Ans. 0

Qu. And what about the molecule CN1C[C@@H](c2ccc(C(F)(F)F)cc2)[C@H](C(=O)Nc2ccc(Cl)cc2F)C1=O (racemic) [Compound 1602] ?
Ans. 40
